# procedure-details: log P, n-octanol/water partition coefficient (EPA OPPTS 830.7550 shake flask method)
# Assay type: physicochemical
# study-conditions: n-octanol/water; partitioning between octanol and water
# note: exactly 4 is not below, so it is Condition not met; use Condition met for logP strictly under it

1. CCCCOC(=O)c1ccccc1O [Butyl salicylate]
Condition met
2. CCCCCCOC(=O)c1ccccc1O [n-Hexyl salicylate]
Condition not met
3. O=C(OCc1ccccc1)c1ccccc1O [Benzyl salicylate]
Condition met
4. O=C(OC1CCCCC1)c1ccccc1O [Cyclohexyl salicylate]
Condition not met
5. O=C1CCCCCCCCCCCCCCO1 [Exaltolide]
Condition not met

In plain terms, does CCCCC(CC)COC(=O)c1ccccc1O (centres unmarked) [2-Ethylhexyl salicylate] come in under 4 for logP?
Condition not met

Another: CC(C)=CCOC(=O)c1ccccc1O [Prenyl salicylate]
Condition met

Another: CC(C)CCOC(=O)c1ccccc1O [Isoamyl salicylate]
Condition met

Another: O=C(Oc1ccccc1)c1ccccc1O [Phenyl salicylate]
Condition met

* * *

# procedure-details: Kovats Retention Index by gas chromatography on DB-5 column against n-alkane standards
# Assay type: physicochemical
# study-conditions: GC, non-isothermal, C8-C22 n-alkane standards
Assign KI (Kovats Retention Index) to each entry below.
Give bare numbers.

1. CCCCOC(=O)c1ccccc1O [Butyl salicylate]
1572.9
2. CC(C)CCOC(=O)c1ccccc1O [Isoamyl salicylate]
1616.4
3. CCCCC(CC)COC(=O)c1ccccc1O (stereo not shown) [2-Ethylhexyl salicylate]
1889.5

Shift focus to the following entry.
What KI (Kovats Retention Index) value was documented for this molecule, CCC(=O)OCC(C)(C)OC(C)C1CCCC(C)(C)C1 (stereo not shown) [Helvetolide] ?
1773
